From: ChEMBL document CHEMBL4257569

assay: Kinetic aqueous solubility of the compound by CAD or CLND method; assay type: physicochemical; settings: buffer; read-out: Kinetic_solubility
Returns y if the recorded solubility kinetic is greater than or equal to 100 µM, and n otherwise.

input: solubility kinetic >= 100 µM for C[C@H](NC(=O)[C@H]1CCCC[C@@H]1c1ccccc1)c1ccccc1 ?
output: n

input: solubility kinetic >= 100 µM for O=C(N[C@@H](CO)c1ccccc1)[C@H]1CCCC[C@@H]1c1ccccc1 ?
output: y

input: solubility kinetic >= 100 µM for O=C(N[C@@H](CO)c1cccc(Cl)c1)[C@H]1CC(F)(F)CC[C@@H]1c1ccccc1 ?
output: y

input: solubility kinetic >= 100 µM for CS(=O)(=O)c1cccc([C@H](CO)NC(=O)c2cc(S(F)(F)(F)(F)F)ccc2Oc2ccccc2)c1 ?
output: y

input: solubility kinetic >= 100 µM for O=C(N[C@@H](CO)c1ccccc1)[C@H]1CC(F)(F)CC[C@@H]1c1ccccc1 ?
output: y

input: solubility kinetic >= 100 µM for O=C(N[C@@H](CO)c1cccc(C(F)(F)F)c1)[C@H]1CC(F)(F)CC[C@@H]1c1ccccc1 ?
output: y

input: solubility kinetic >= 100 µM for CS(=O)(=O)c1cccc([C@H](CO)NC(=O)c2cc(C(F)(F)F)ccc2Oc2ccccc2)c1 ?
output: n

input: solubility kinetic >= 100 µM for C[C@H](NC(=O)c1cc(C(F)(F)F)ccc1Oc1ccccc1)c1cccc(S(C)(=O)=O)c1 ?
output: n

input: solubility kinetic >= 100 µM for CS(=O)(=O)c1cccc(CNC(=O)c2cc(C(F)(F)F)ccc2Sc2ccccc2)c1 ?
output: n
